Target: UniProt P13497
Sequence (P13497 whole entry): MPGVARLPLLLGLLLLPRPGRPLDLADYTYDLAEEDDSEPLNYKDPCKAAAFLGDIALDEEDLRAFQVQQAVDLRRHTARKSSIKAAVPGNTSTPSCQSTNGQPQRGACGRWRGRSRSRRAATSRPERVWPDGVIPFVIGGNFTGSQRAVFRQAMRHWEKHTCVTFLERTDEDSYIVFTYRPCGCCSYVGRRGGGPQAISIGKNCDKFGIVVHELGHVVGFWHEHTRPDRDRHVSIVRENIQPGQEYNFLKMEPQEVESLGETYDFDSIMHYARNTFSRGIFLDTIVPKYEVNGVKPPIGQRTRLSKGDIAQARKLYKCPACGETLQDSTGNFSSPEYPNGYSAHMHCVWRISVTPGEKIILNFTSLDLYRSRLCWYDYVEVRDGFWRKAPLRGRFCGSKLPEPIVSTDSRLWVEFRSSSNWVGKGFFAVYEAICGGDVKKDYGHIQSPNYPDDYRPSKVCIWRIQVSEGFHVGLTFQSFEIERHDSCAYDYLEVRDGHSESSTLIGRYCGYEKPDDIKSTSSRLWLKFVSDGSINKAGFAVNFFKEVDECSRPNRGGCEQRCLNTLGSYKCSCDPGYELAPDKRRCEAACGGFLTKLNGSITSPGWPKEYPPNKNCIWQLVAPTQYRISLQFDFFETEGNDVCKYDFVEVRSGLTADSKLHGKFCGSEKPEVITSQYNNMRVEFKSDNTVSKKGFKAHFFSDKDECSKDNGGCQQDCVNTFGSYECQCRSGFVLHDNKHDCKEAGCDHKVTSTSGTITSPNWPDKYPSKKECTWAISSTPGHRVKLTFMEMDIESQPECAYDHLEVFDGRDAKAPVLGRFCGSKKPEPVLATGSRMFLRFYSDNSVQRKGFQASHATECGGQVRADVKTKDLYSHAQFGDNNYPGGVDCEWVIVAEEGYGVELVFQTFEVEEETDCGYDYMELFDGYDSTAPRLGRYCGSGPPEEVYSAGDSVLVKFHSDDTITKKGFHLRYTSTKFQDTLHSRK
Experiment: Inhibitory activity against Procollagen C-Proteinase (PCP)
pIC50: −log10 of the molar value.
Assay Metric: pIC50

INSERT INTO measurements (compound, assay_target, readout_value) VALUES
  ('COc1ccc(S(=O)(=O)N(Cc2ccc3c(c2)OCO3)[C@H](Cc2ccc([N+](=O)[O-])cc2)C(=O)NO)cc1', 'UniProt P13497', 7.49);

(1) COc1ccc(S(=O)(=O)N(Cc2ccc3c(c2)OCO3)[C@H](CCCCNC(=O)OCc2ccccc2)C(=O)NO)cc1
(2) COc1ccc(S(=O)(=O)N(Cc2ccc3c(c2)OCO3)[C@@H](C(=O)NO)C(C)C)cc1
(3) COc1ccc(S(=O)(=O)N(Cc2ccc3c(c2)OCO3)[C@@H](C(=O)NO)C(=O)C(N)CNC(=O)OCc2ccccc2Cl)cc1 (stereo not given in full)
Enquiry: In this exercise, place the 3 compounds in ascending sequence of their recorded pIC50. Answer by listing the labels in the requested order.
Return: 2, 1, 3

(P) COc1ccc(S(=O)(=O)N(Cc2ccc3c(c2)OCO3)[C@H](Cc2cncn2C(c2ccccc2)(c2ccccc2)c2ccccc2)C(=O)NO)cc1
(Q) COc1ccc(S(=O)(=O)N(Cc2cc(C)on2)[C@H](C)C(=O)NO)cc1
(R) COc1ccc(S(=O)(=O)N(Cc2cccc3ccccc23)[C@H](C)C(=O)NO)cc1
(S) COc1ccc(S(=O)(=O)N(Cc2ccccc2C(F)(F)F)[C@H](C)C(=O)NO)cc1
(T) COc1ccc(S(=O)(=O)N(Cc2ccc3c(c2)OCO3)[C@@H](C(=O)NO)C(=O)C(N)CNC(=O)OCc2ccccc2Br)cc1 (stereo not given in full)
Enquiry: hey, can you rank those compounds up there by pIC50? biggest number first please // rank by listing labels in the order requested
Return: S, T, P, R, Q
(S: 8.22, T: 7.74, P: 7.44, R: 7.05, Q: 6.64)

---

Molecular target: Bone morphogenetic protein 1 (Homo sapiens)
Experiment: Inhibitory activity against Procollagen C-Proteinase (PCP)
Assay Metric: IC50 (nM)

INSERT INTO assay_data (query_smiles, units_label, readout_value) VALUES
  ('COc1ccc(S(=O)(=O)N(Cc2ccc3c(c2)OCO3)[C@H](COC(C)(C)C)C(=O)NO)cc1', 'nM', 23);

(A) COc1ccc(S(=O)(=O)N(Cc2cc(F)cc(F)c2)[C@H](C)C(=O)NO)cc1
(B) COc1ccc(S(=O)(=O)N(Cc2sc3scc(C)c3c2C)[C@H](C)C(=O)NO)cc1
Enquiry: Param metric = IC50; output whichever of A , B has the minimum value. Write the label of whichever entry you select.
Return: B
(B: 60 nM, A: 140 nM)

(a) COc1ccc(S(=O)(=O)N(Cc2ccc(Cl)c(Cl)c2)[C@H](C)C(=O)NO)cc1
(b) COc1ccc(S(=O)(=O)N(Cc2cnc(Cl)s2)[C@H](C)C(=O)NO)cc1
Enquiry: Of a and b , which carries the smaller reported IC50 figure? API: response body contains the label of the selected item.
Return: a

---

Molecular target: Bone morphogenetic protein 1 (Homo sapiens)
Experiment: Inhibitory activity against procollagen C-proteinase (PCP).
Assay Metric: IC50 (nM)

INSERT INTO measurements (query_smiles, units_label, readout_value) VALUES
  ('COc1ccc(S(=O)(=O)N(Cc2ccc3c(c2)OCO3)[C@H](Cc2ccco2)C(=O)O)cc1', 'nM', 470),
  ('COC(=O)c1ccc(CN([C@H](Cc2cccs2)C(=O)O)S(=O)(=O)c2ccc(OC)cc2)cc1', 'nM', 210),
  ('COc1ccc(S(=O)(=O)N(Cc2cccc(Cl)c2)[C@H](Cc2cccs2)C(=O)NO)cc1', 'nM', 390),
  ('CCN(CC)C(=N)NCCC[C@H](C(=O)O)N(Cc1ccc2c(c1)OCO2)S(=O)(=O)c1ccc(OC)cc1', 'nM', 28),
  ('COc1ccc(S(=O)(=O)N(Cc2cccc(Br)c2)[C@H](Cc2cccs2)C(=O)O)cc1', 'nM', 230);

(1) COc1ccc(S(=O)(=O)N(Cc2ccc3c(c2)OCO3)[C@H](Cc2ccc(Br)s2)C(=O)O)cc1
(2) COc1ccc(S(=O)(=O)N(Cc2cccc(C)c2F)[C@H](Cc2cccs2)C(=O)NO)cc1
Enquiry: # min-compare on IC50 between 1 and 2 # answer = label of selected item
Return: 2

(P) COc1ccc(S(=O)(=O)N(Cc2cc(F)c(F)cc2F)[C@H](Cc2cccs2)C(=O)NO)cc1
(Q) COc1ccc(S(=O)(=O)N(Cc2ccc3c(c2)OCO3)[C@H](Cc2cccs2)C(=O)O)cc1
Enquiry: Lab log: flag the item ( P or Q ) with the smaller IC50 figure. Write down the label attached to your selection.
Return: Q
(Q: 24 nM, P: 180 nM)

(I) CCCCN(C)C(=N)NCCCC[C@H](C(=O)O)N(Cc1ccc2c(c1)OCO2)S(=O)(=O)c1ccc(OC)cc1
(II) COc1ccc(S(=O)(=O)N(Cc2ccc(C(C)C)cc2)[C@H](C)C(=O)O)cc1
(III) COc1ccc(S(=O)(=O)N(Cc2cccc(F)c2F)[C@H](Cc2cccs2)C(=O)NO)cc1
(IV) COc1ccc(S(=O)(=O)N(Cc2sc3scc(C)c3c2C)[C@H](C)C(=O)O)cc1
(V) C#CC[C@H](C(=O)O)N(Cc1ccc2c(c1)OCO2)S(=O)(=O)c1ccc(OC)cc1
Enquiry: # sort list by recorded IC50, greatest to least To answer, arrange all of the labels according to the requested order.
Return: II, I, III, IV, V
(II: 350 nM, I: 200 nM, III: 100 nM, IV: 50 nM, V: 10 nM)

(I) C=Cc1ccc(CN([C@H](Cc2cccs2)C(=O)NO)S(=O)(=O)c2ccc(OC)cc2)cc1
(II) COc1ccc(S(=O)(=O)N(Cc2ccc3c(c2)OCO3)[C@H](COCc2ccccc2)C(=O)O)cc1
(III) COc1ccc(S(=O)(=O)N(Cc2ccc(Cl)cc2Cl)[C@H](Cc2cccs2)C(=O)NO)cc1
Enquiry: Arrange items by their IC50 values in increasing order. Please respond by ranking the labels in the order requested.
Return: I, II, III

---

Molecular target: Bone morphogenetic protein 1 (Homo sapiens)
Test: Inhibitory activity against procollagen C-proteinase (PCP).
pIC50: −log10 of the molar value.
Assay Metric: pIC50

Look over these answered cases.
INSERT INTO measurements (query_smiles, assay_metric, readout_value) VALUES
  ('COc1ccc(S(=O)(=O)N(Cc2cccc(I)c2)[C@H](C)C(=O)O)cc1', 'pIC50', 6.55),
  ('COc1ccc(S(=O)(=O)N(Cc2ccc(I)cc2)[C@H](Cc2cccs2)C(=O)NO)cc1', 'pIC50', 6.44),
  ('COc1ccc(CSC[C@H](C(=O)O)N(Cc2ccc3c(c2)OCO3)S(=O)(=O)c2ccc(OC)cc2)cc1', 'pIC50', 6.60);

(1) COc1ccc(S(=O)(=O)N(Cc2ccc3c(c2)OCO3)[C@H](Cc2ccncc2)C(=O)O)cc1
(2) COc1ccc(S(=O)(=O)N(Cc2cc(C)on2)[C@H](Cc2cccs2)C(=O)O)cc1
Enquiry: Quick one: lower pIC50, 1 or 2 ? Selection: enter the item's label.
Return: 1
(1: 6.23, 2: 6.92)
